Give TGI for every item shown.
System: A498 renal
Experiment: NCI tumour cell line growth inhibition, 48 h

Can you look up the measured TGI of "CN(C)CCCNC(=O)N/N=C/c1ccc(O)cc1" for me?
> 100 µM

Field entry: "c1ccc2c(c1)nnn2CNc1ccc(N2CCCCC2)cc1"
> 100 µM

Field entry: O=C(NN1C(=O)C(Cl)C1c1cccc(O)c1)c1ccccc1O (stereo not drawn)
> 100 µM

----------
Give TGI for every item shown.
Tested on: HCC-2998 colon
Experiment: NCI tumour cell line growth inhibition, 48 h

Can you look up the measured TGI of O=C1C=CC2(CCCCCCC2=O)CC1 (stereo unspecified) for me?
> 100 µM

Field entry: CC1(CO)C(O)CCC2(C)C1CCC1CC3CC12CCC3(O)CO (stereo unspecified)
> 100 µM

Field entry: "CC(=O)Nc1ccccc1-c1nc2ccccc2nc1-c1ccccc1"
> 100 µM

Field entry: "CCCCCCCCCCC(=O)CCCCCCC(=O)O"
36.1 µM

Field entry: CC(C)N(C(=O)C12C3C4C1C1C2C3C41C(=O)C(C)(C)C)C(C)C (stereo unspecified)
> 100 µM

Field entry: "COc1cc(/C=C/C(=O)c2cccc3ccccc23)cc(OC)c1OC"
28.2 µM

----------
Test system: HS 578T breast
Test: NCI tumour cell line growth inhibition, 48 h
Give TGI for every item shown.
The answer is to be given in µM; state only the numeric part.

Can you look up the measured TGI of "O=C1Cc2c(-c3ccccc3)cc(-c3ccccc3)nc2-c2ccccc2N1" for me?
19

Field entry: "COc1ccc2[nH]c(Cl)c(/C=C3/C(=O)Nc4ccccc43)c2c1"
4.31

Field entry: CC(=O)O[C@@H]1[C@H](OC2CCCCC2(c2ccccc2)c2ccccc2)O[N+]([O-])=CC12CCCCC2 (some centres not stated)
43.3

Field entry: Cc1ccc(C2(O)c3ccccc3C(=O)N(C)C2(O)c2ccc(C)cc2)cc1 (configuration not stated)
46.9

Field entry: C[C@@H]1CC[C@H]2[C@@H](C)C(O)O[C@@H]3O[C@]4(C)CC[C@@H]1[C@]32OO4 (some centres not stated)
42.2

Field entry: Nc1nc(N)c2c(n1)NC(c1sc(Cl)nc1Cl)CC(c1ccccc1)=N2 (configuration not stated)
11.1

----------
Test system: MDA-N
Assay: NCI tumour cell line growth inhibition, 48 h
Give TGI for every item shown.

Can you look up the measured TGI of CN(C(=O)[C@H](NC(=O)OCc1ccccc1)c1ccccc1)C1CCCCC1N1CCCC1 (stereo not given in full) for me?
> 100 µM

Field entry: "C=C1CC[C@@]2(C)[C@@H]([C@@H]1C)[C@H]1CC[C@@H]3[C@@]4(C)CC[C@H](O)C(C)(C)[C@@H]4CC[C@@]3(C)[C@]1(C)C[C@@H]2O"
> 51.5 µM

Field entry: "O=Cc1c2c(cc3c1CC1(C3)Cc3cc4c(c(C=O)c3C1)CCCC4)CCCC2"
> 31.6 µM

Field entry: "CC(=O)Nc1ccc(NC(=O)CC(=O)Nc2ccc(NC(C)=O)cc2)cc1"
> 100 µM

Field entry: "CCOC(=O)COc1cc(-c2ccccc2F)nc2cc3c(cc12)OCO3"
> 100 µM

----------
System: OVCAR-5 ovarian
Test: NCI tumour cell line growth inhibition, 48 h
result.type: GI50

Can you look up the measured GI50 of "CC1(C)OB(c2ccc(N(CCOS(C)(=O)=O)CCOS(C)(=O)=O)cc2)OC1(C)C" for me?
25.4 µM

Field entry: O=CC(OC(=O)c1ccccc1)C(OC(=O)c1ccccc1)C(COC(c1ccccc1)(c1ccccc1)c1ccccc1)OC(=O)c1ccccc1 (centres undefined)
21.6 µM

Field entry: "COc1ccc2[nH]c(Cl)c(/C=C3/C(=O)Nc4ccccc43)c2c1"
0.554 µM

Field entry: "CCN(C(=O)N1CCN(c2cc3c(cc2F)c(=O)c(C(=O)O)cn3C2CC2)CC1)c1nc(-c2ccccc2)cs1"
3.27 µM

Field entry: "C1=N[C@]23C(=N[C@H](N=C2NCc2ccco2)[C@]24N=CNC2=N[C@H]3N=C4NCc2ccco2)N1"
> 100 µM

Field entry: C[C@@H]1CC[C@H]2[C@@H](C)C(O)O[C@@H]3O[C@]4(C)CC[C@@H]1[C@]32OO4 (some centres undefined)
0.735 µM

Field entry: "Cc1cccc2c(C3=C(c4cn(C)c5ccccc45)C(=O)NC3=O)cn(C)c12"
> 25 µM

Field entry: "COc1ccc(C(=O)/C=C/c2sc(Cl)nc2Cl)cc1"
3.01 µM

Field entry: "CNC(=O)c1cc(Oc2ccc3nc(NC(=O)Nc4ccc(CN5CCOCC5)c(C(F)(F)F)c4)sc3c2)ccn1"
2.44 µM

// provenance: PubChem BioAssay (NCI)
